- Run parameters: in methyl acetate, 278.15 K
Value type: solubility (mole fraction)

> print(dat)
                            input.smiles  measured.value
1  CN1COCN(Cc2cnc(Cl)s2)C1=N[N+](=O)[O-]         0.00283

====

- Run parameters: in ethyl acetate, 323.15 K
Value type: solubility (mole fraction)

> print(dat)
                            input.smiles  measured.value
1  CN1COCN(Cc2cnc(Cl)s2)C1=N[N+](=O)[O-]         0.00429

====

- Run parameters: in acetone, 303.15 K
Value type: solubility (mole fraction)

> print(dat)
                            input.smiles                  value.type  measured.value
1  CN1COCN(Cc2cnc(Cl)s2)C1=N[N+](=O)[O-]  solubility (mole fraction)           0.014
